Field: IC50. Provide a value for each of the molecules that follow.
# testedOn: haematopoietic prostaglandin D synthase (H-PGDS) (Homo sapiens, UniProt O60760)
# Construct: Full length human H-PGDS cDNA (Invitrogen Ultimate ORF IOH13026) was amplified by PCR; made in house; host or cells: E. coli BL21 (DE3*), vector pET22b+
# Sequence (O60760 whole entry): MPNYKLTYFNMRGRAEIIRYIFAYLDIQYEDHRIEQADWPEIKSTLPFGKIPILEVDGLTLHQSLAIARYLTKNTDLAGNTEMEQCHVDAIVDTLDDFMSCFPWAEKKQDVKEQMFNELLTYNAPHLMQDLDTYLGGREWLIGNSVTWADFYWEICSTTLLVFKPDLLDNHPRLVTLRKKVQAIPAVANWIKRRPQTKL
# experimentalDetails: H-PGDS RapidFire High Throughput Mass Spectrometry Assay
# Type: biochemical
# conditionSet: H-PGDS RapidFire MS assay, mean pIC50; read-out: Potency Range (mean pIC50) (converted)

molecule: O=C(N[C@H]1CC[C@H](C2(O)CC2)CC1)c1cnc2cc(OC(F)F)c(Cl)cc2c1 [Example 121]
IC50: < 10 nM

molecule: CC1CN(c2cc3ncc(C(=O)N[C@H]4CC[C@H](C(C)(C)O)CC4)cc3cc2F)C1 [Example 183]
IC50: 10 to 79.4 nM

molecule: O=C(N[C@H]1CC[C@H](N[C@H](CO)C(F)(F)F)CC1)c1cnc2cc(OC(F)F)c(Br)cc2c1 [Example 155]
IC50: < 10 nM

Item: C[C@@H](N[C@H]1CC[C@H](NC(=O)c2cnc3cc(OC(F)F)c(Br)cc3c2)CC1)C(F)F [Example 158] | IC50: < 10 nM

====

# testedOn: haematopoietic prostaglandin D synthase (H-PGDS) (Homo sapiens, UniProt O60760)
# Construct: Full length human H-PGDS cDNA (Invitrogen Ultimate ORF IOH13026) was amplified by PCR; made in house; host or cells: E. coli BL21 (DE3*), vector pET22b+
# experimentalDetails: H-PGDS RapidFire High Throughput Mass Spectrometry Assay
# Assay type: biochemical
# conditionSet: H-PGDS RapidFire MS assay, mean pIC50; read-out: Potency Range (mean pIC50) (converted)
Field: IC50. Provide a value for each of the molecules that follow.

Illustrative cases are given below, each with its answer.
molecule: O=C(N[C@H]1CC[C@H](N2CC(F)C2)CC1)c1cnc2cc(OC(F)F)c(F)cc2c1
valueObserved: 0.01 to 0.0794 µM

molecule: CC(C)(O)[C@H]1CC[C@H](NC(=O)c2cnc3c4c(ccc3c2)CCO4)CC1
valueObserved: 0.01 to 0.0794 µM

molecule: CC(C)(O)[C@H]1CC[C@H](NC(=O)c2cnc3cc(Cl)c(Cl)cc3c2)CC1 [Example 202A]
valueObserved: 0.01 to 0.0794 µM

molecule: CC(C)(O)C(=O)N[C@H]1C[C@H](NC(=O)c2cnc3cc(OC(F)F)c(Cl)cc3c2)C1
valueObserved: 0.01 to 0.0794 µM

molecule: C[C@@H]1CNC(=O)[C@H]1NC(=O)c1cnc2cc(N3CC[C@@H]3C)c(Cl)cc2c1
valueObserved: < 0.01 µM

Lab note: each molecule below needs its IC50 filled in.
1. O=C(N[C@H]1CC[C@@H](N2CC(F)C2)CC1)c1cnc2cc(OC(F)F)c(F)cc2c1
2. CN1CCN(C(=O)[C@H]2CC[C@H](NC(=O)c3cnc4cc(OC(F)F)c(Cl)cc4c3)CC2)CC1

OUTPUT:
1. 0.1 to 1 µM
2. 0.01 to 0.0794 µM

====

Field: IC50. Provide a value for each of the molecules that follow.
# testedOn: haematopoietic prostaglandin D synthase (H-PGDS) (Homo sapiens)
# Construct: Full length human H-PGDS cDNA (Invitrogen Ultimate ORF IOH13026) was amplified by PCR; made in house; host or cells: E. coli BL21 (DE3*), vector pET22b+
# experimentalDetails: H-PGDS RapidFire High Throughput Mass Spectrometry Assay
# Type: biochemical
# conditionSet: H-PGDS RapidFire MS assay, mean pIC50; read-out: Potency Range (mean pIC50) (converted)
Structures can show the parent of a compound that is named as a salt.

Illustrative cases are given below, each with its answer.
molecule: C[C@@H](N[C@H]1CC[C@H](NC(=O)c2cnc3cc(OC(F)F)c(F)cc3c2)CC1)C(F)(F)F
valueObserved: 10 to 79.4 nM

molecule: CN(C)c1ccc2cc(C(=O)N[C@H]3CC[C@H](C(C)(C)O)CC3)cnc2c1
valueObserved: < 10 nM

molecule: Cc1cc(NC(=O)c2cnc3cc(OC(F)F)ccc3c2)[nH]n1
valueObserved: 10 to 79.4 nM

Lab note: each molecule below needs its IC50 filled in.
1. O=C(N[C@H]1CC[C@H](N[C@@H](CO)C(F)(F)F)CC1)c1cnc2cc(OC(F)F)c(Br)cc2c1
2. Cn1nnnc1N1CCC(NC(=O)c2cnc3ccc(Cl)cc3c2)CC1
3. Cn1nnnc1N1CCC(NC(=O)c2cnc3c4c(ccc3c2)CCO4)CC1
4. O=C(N[C@H]1C[C@](O)(C(F)(F)F)C1)c1cnc2cc(OC(F)F)c(Cl)cc2c1
5. C[C@H](N[C@H]1CC[C@H](NC(=O)c2cnc3cc(OC(F)F)c(F)cc3c2)CC1)C(F)F
6. CCOC(=O)c1cnc(N2CCC(NC(=O)c3cnc4cc(OC(F)F)c(F)cc4c3)CC2)o1
7. NCCCOC[C@H]1CC[C@H](NC(=O)c2cnc3cc(OC(F)F)ccc3c2)CC1

OUTPUT:
< 10 nM
100 to 1000 nM
10 to 79.4 nM
< 10 nM
< 10 nM
10 to 79.4 nM
10 to 79.4 nM

Lab note: each molecule below needs its IC50 filled in.
1. O=C(N[C@H]1CCNC1=O)c1cnc2cc(C3CCC3)c(Cl)cc2c1
2. CC(C)(O)[C@H]1CC[C@H](NC(=O)c2cnc3cc(C4CC4)ccc3c2)CC1
3. CCOC(=O)c1cnc(N2CC[C@H](NC(=O)c3cnc4cc(OC(F)F)c(F)cc4c3)C2)o1 [Example 80, trifluoroacetic acid salt]
4. CC(C)(O)[C@H]1CC[C@H](NC(=O)c2cnc3cc(C(F)(F)F)ccc3c2)CC1
5. C[C@H](NC[C@H]1CC[C@H](NC(=O)c2cnc3cc(OC(F)F)c(F)cc3c2)CC1)C(F)F
6. C#CCOC[C@H]1CC[C@H](NC(=O)c2cnc3cc(OC(F)F)c(F)cc3c2)CC1

OUTPUT:
1. < 10 nM
2. < 10 nM
3. 10 to 79.4 nM
4. 100 to 1000 nM
5. 10 to 79.4 nM
6. < 10 nM

Recorded values, source patent US20210238162A1.
